Measured values drawn from patent US20150315188A1 for this set.

- measurement target: Human adrenergic α2A receptor (Homo sapiens)
- Sequence (P08913 whole entry): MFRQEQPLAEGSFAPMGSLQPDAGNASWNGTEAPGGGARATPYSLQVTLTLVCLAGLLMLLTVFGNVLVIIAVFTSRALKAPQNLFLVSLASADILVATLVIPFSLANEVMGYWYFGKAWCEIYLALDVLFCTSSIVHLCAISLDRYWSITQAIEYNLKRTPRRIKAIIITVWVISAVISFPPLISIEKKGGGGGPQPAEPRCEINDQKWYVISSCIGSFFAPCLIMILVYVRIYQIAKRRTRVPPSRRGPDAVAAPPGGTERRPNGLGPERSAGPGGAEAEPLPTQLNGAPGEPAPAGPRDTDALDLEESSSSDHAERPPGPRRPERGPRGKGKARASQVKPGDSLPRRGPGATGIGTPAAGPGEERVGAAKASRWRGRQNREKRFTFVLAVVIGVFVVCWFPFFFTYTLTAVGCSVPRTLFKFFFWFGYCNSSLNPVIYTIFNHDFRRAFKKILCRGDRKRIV
- experiment: Radioligand binding, adrenergic α2A (Protocol Group B)
- Set-up: purchased Milipore (Millipore)
- setup conditions: 0.3 μM compound; Protocol Group B; read-out: Percentage inhibition of ligand binding, Adrenergic α2A (0.3 μM)
value kind: inhibition at 0.3 µM
Value and unit, in that order.

Worked cases, inhibition at 0.3 µM given:
Cc1ccc2c(c1)c1c(n2CC(O)c2ccncc2)CNC2CCCC12 (single isomer, unassigned) [34c]: 11%
Cc1cc(F)c2c(c1)c1c(n2CC(C)(O)c2ccncc2)CCN2CCCC12 (single isomer, unassigned) [81c]: 8%
CC(O)(Cn1c2c(c3cc(C(F)(F)F)ccc31)CN1CCCC1C2)c1cccnc1 (stereo not drawn) [85b]: -17%
CCCOC(Cn1c2c(c3cc(C)ccc31)CN(C)CC2)c1ccncc1 (single isomer, unassigned) [42a]: 63%

Batch: inhibition at 0.3 µM for all items listed.
1. CC(O)(Cn1c2c(c3cc(Cl)cc(F)c31)CN1CCCC1C2)c1ccncc1 (single isomer, unassigned) [86c]
2. Cc1ccc2c(c1)c1c(n2CC(C)(O)c2ccc(F)cc2)CC2CCC1N2C (single isomer, unassigned) [102b]

Response:
1. 9%
2. 23%

----------
- measurement target: Human adrenergic α2B receptor (Homo sapiens)
- Sequence (P18089 whole entry): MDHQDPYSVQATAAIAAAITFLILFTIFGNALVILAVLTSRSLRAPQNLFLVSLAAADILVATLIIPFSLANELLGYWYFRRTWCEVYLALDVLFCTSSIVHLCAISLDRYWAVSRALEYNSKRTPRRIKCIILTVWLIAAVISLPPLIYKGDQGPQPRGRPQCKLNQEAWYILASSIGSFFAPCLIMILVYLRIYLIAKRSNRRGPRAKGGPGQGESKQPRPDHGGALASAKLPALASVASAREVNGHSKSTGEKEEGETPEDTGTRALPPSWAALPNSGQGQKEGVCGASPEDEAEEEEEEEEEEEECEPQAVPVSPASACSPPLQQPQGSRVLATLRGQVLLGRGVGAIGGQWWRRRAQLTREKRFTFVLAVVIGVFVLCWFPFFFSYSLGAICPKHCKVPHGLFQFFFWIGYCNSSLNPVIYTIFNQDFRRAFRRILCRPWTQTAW
- experiment: Radioligand binding, adrenergic α2B (Protocol Group B)
- Parameters: purchased Milipore (Millipore)
- setup conditions: 10 nM compound; Protocol Group B; read-out: Percentage inhibition of ligand binding, Adrenergic α2B (10 nM)
Field: inhibition at 0.01 µM. Provide a value for each of the molecules that follow.
# do not omit the unit; it follows the number

Worked cases, inhibition at 0.01 µM given:
CC(O)(Cn1c2c(c3cc(Cl)cc(F)c31)CN1CCCC1C2)c1ccncc1 (single isomer, unassigned) [86c]: 24%
CCCOC(Cn1c2c(c3cc(C)ccc31)CN(C)CC2)c1ccncc1 (single isomer, unassigned) [42a]: 74%
Cc1cc(F)c2c(c1)c1c(n2CC(C)(O)c2cccnc2)CCN2CCCC12 (single isomer, unassigned) [79b]: 86%
Cc1ccc2c(c1)c1c(n2CC(O)c2ccc(C(=O)N3CCCC3)nc2)CCN(C)C1 (centres unmarked): 1%
Cc1cc2c3c(n(CC(O)c4ccncc4)c2cc1Cl)CCN1CCCC31 (centres unmarked): 85%

Each molecule below has a reported value. Please supply its inhibition at 0.01 µM.
1. Cc1ccc2c(c1)c1c(n2CC(C)(O)c2ccc(C(=O)N(C)CC3CC3)nc2)CCN(C)C1 (centres unmarked)
2. Cc1ccc2c(c1)c1c(n2CC(O)c2ccc(C(=O)N(C)C)nc2)CCN(C)C1 (centres unmarked)
3. Cc1cc(Cl)c2c(c1)c1c(n2CC(C)(O)c2ccncc2)CCN2CCCC12 (single isomer, unassigned) [91a]
4. CC(O)(Cn1c2c(c3cc(F)cc(Cl)c31)C1CCCN1CC2)c1ccncc1 (single isomer, unassigned) [88a]
5. Cc1ccc2c(c1)c1c(n2CC(O)c2cccnc2)C(F)(F)CN(C)C1 (centres unmarked)
6. Cc1ccc2c(c1)c1c(n2CC(O)c2ccncc2)CNC2CCCC12 (single isomer, unassigned) [34c]

Response:
1: 6%; 2: 15%; 3: 93%; 4: 86%; 5: 13%; 6: 52%

----------
- measurement target: Human adrenergic α1B receptor (Homo sapiens, UniProt P35368)
- Sequence (P35368 1-520): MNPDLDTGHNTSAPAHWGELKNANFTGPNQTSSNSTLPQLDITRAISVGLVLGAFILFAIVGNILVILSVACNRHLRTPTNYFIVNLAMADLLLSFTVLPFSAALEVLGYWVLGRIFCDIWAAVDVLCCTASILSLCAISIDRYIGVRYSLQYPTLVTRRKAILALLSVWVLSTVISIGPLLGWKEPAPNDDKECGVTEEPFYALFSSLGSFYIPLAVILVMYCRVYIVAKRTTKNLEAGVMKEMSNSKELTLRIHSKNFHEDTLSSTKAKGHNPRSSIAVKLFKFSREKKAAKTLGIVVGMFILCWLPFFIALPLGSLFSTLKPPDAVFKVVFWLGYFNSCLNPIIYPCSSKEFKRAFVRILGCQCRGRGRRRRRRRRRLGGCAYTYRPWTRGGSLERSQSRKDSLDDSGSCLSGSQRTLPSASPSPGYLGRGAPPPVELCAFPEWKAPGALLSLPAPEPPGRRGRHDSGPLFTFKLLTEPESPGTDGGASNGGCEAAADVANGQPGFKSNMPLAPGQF
- experiment: Radioligand binding, adrenergic α1B (Protocol Group B)
- Set-up: purchased Milipore (Millipore)
- setup conditions: 0.1 μM compound; Protocol Group B; 0.1 µM
Kindly supply the reported Percentage inhibition of ligand binding, Adrenergic α1B (0.1 μM) values for the records listed here.

The cases that follow already have their Percentage inhibition of ligand binding, Adrenergic α1B (0.1 μM) on record.
Cc1ccc2c(c1)c1c(n2CC(OC2CCCC2)c2ccncc2)CCN(C)C1 (single isomer, unassigned) [35a]: 40%
Cc1ccc2c(c1)c1c(n2CC(C)(O)c2ccncc2)CC2CCCN2C1 (single isomer, unassigned) [37c]: 15%
Cc1cc(F)cc2c3c(n(CC(C)(O)c4ccncc4)c12)CCN1CCCC31 (single isomer, unassigned) [77a]: 7%
Cc1cc(F)cc2c3c(n(CC(O)c4ccncc4)c12)CCN1CCCC31 (single isomer, unassigned) [136c]: 0%
Cc1cc(F)cc2c3c(n(CC(C)(O)c4ccncc4)c12)CCN1CCCC31 (single isomer, unassigned) [77b]: −3%

Lab note: each molecule below needs its Percentage inhibition of ligand binding, Adrenergic α1B (0.1 μM) filled in.
1. CC(O)(Cn1c2c(c3cc(Cl)cc(F)c31)C1CCCN1CC2)c1cccnc1 (single isomer, unassigned) [53c]
2. Cc1ccc2c(c1F)c1c(n2CC(C)(O)c2cccnc2)CCN2CCCC12 (single isomer, unassigned) [87d]
3. CCCOC(Cn1c2c(c3cc(C)ccc31)CN(C)CC2)c1ccncc1 (single isomer, unassigned) [42b]
4. OC(Cn1c2c(c3cc(F)cc(F)c31)C1CCCN1CC2)c1ccncc1 (single isomer, unassigned) [144a]

Response:
1: 1%; 2: 34%; 3: 27%; 4: 28%
